# target: Kappa-type opioid receptor (Cavia porcellus, UniProt P41144)
# Sequence (P41144 whole entry): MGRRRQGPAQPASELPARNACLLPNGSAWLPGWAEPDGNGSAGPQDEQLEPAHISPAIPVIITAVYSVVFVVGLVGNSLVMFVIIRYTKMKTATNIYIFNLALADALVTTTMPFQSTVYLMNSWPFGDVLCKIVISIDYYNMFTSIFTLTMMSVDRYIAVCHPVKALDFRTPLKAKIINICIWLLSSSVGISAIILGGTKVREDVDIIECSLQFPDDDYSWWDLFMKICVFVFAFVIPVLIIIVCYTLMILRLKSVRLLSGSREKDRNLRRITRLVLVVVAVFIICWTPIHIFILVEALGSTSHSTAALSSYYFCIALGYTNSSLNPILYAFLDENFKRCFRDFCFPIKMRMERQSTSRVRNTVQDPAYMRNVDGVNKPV
observation type: Ki (nM)
Expressed in nM, but write only the number.

Data request: Form: Entry = `C[C@@H]1[C@@H]2Cc3ccc(O)cc3[C@@]1(C)CCN2CC1CC1` | System = Kappa-type opioid receptor (Cavia porcellus, UniProt P41144) | Ki = ____
Data returned: 0.18
